tested on: ATP; assay: switch fluorescence ratio, 500 uM ATP over buffer (Cy3 cluster intensity, sum of 5 cycles each) (fold (ratio)); higher = stronger signal-on switching upon ATP binding; sequences stand for … in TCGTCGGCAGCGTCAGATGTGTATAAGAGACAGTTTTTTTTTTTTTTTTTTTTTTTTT…TC; details: aptamer strand: ATP DNA aptamer (quencher-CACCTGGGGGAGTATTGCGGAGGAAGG + anchor), 100 nM annealed; ATP concentration: 500 uM;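 also: ATP exposure 15 min at 22 °C before imaging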
# switch fluorescence ratio per entry
Answer with a bare number; do not write a unit.

{"columns": ["Residue sequence", "Measurement name", "Observed measurement"],
 "data": [
  ["CATTCGGGGT", "switch fluorescence ratio", 0.994]
]}

[ask] Consider the sequence `AATATCCGTA` and give its recorded switch fluorescence ratio.
[reply] 1.01

[ask] Return the recorded switch fluorescence ratio value; entry: `GTGGGACAGC`
[reply] 1.02

[ask] Quick one: give measured switch fluorescence ratio for `TAGGGCAGGG`
[reply] 1

[ask] Identify measured switch fluorescence ratio corresponding to `GCTTAATGT`
[reply] 1

[ask] State its switch fluorescence ratio for this sequence: `TTGTGACATA`
[reply] 1
